Target: T1, human amylin-3(a) receptor (human, UniProt P30988 25-474; O60896 24-148)
T1 sequence (looked up) 1: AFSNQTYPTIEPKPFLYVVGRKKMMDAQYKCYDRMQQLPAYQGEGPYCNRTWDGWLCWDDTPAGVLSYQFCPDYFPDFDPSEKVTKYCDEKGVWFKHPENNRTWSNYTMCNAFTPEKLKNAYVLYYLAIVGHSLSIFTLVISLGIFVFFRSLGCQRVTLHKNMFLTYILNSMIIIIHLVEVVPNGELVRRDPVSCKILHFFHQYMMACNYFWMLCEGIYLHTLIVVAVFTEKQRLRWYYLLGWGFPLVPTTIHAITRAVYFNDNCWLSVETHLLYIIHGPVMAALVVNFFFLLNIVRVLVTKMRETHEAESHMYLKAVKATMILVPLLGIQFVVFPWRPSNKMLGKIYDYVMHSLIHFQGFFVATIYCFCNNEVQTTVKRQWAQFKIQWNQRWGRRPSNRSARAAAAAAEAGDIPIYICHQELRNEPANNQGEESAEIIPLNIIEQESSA
T1 sequence (looked up) 2: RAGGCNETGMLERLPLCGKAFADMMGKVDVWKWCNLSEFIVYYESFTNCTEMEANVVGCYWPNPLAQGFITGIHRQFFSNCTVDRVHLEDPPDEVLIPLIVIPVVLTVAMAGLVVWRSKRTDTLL
Test: cell-based or functional assay
Numbered stars: 1 amine (or outer) side, 2 acyl side, 3 side chain; on linkers, the order of the positions; unused ones are H or OH. Square brackets hold non-standard residues; d marks the D form. Side chains are listed from the residue outwards. * marks the point of attachment. C20 diacid = O=C(O)CCCCCCCCCCCCCCCCCCC(=O)*; C18 diacid = O=C(O)CCCCCCCCCCCCCCCCC(=O)*; C16 diacid = O=C(O)CCCCCCCCCCCCCCC(=O)*; γGlu = O=C(O)[C@H](CCC(=O)[*:2])N[*:1]; Chem. 28 = not defined here; AEEA = NCCOCCOCC(=O)O; Aib = CC(C)(N)C(=O)O
METRIC_NAME: hAMYR3 Potency, no HSA, EC50 [pM] (pM)
# value in pM; strip the unit string

Examples with their reported hAMYR3 Potency, no HSA, EC50 [pM] follow.
| BINDER | UNIT_ANNOTATION | hAMYR3 Potency, no HSA, EC50 [pM] |
| --- | --- | --- |
| Compound 15 (peptide) peptide: H[Aib]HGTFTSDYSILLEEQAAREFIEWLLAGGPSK([AEEA-AEEA-γGlu-C18 diacid])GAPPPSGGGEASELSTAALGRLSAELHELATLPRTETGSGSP-NH2 | pM | 5.01 |
| Compound 98 (peptide) peptide: Y[Aib]EGTFTSDYSILLEEQAAREFIEWLLAGGPSSGAGQAPGQAPLASHLSTAQTARLSAELHK([AEEA-AEEA-γGlu-C18 diacid])LATLPRTETGSGSP-NH2 | pM | 2.3 |
| Compound 89 (peptide) peptide: H[Aib]HGTFTSDYSILLEEQAAREFIEWLLAGGPSSGEASHLSTAALGRLSAELHRLK([AEEA-AEEA-γGlu-C18 diacid])TLPRTETGSGSP-NH2 | pM | 3.12 |
| Compound 71 (peptide) peptide: H[Aib]HGTFTSDYSILLEEQAAREFIEWLLAGGPSRGAPPPSGGGEASHLSTQTQGRLSAELHK([AEEA-AEEA-γGlu-C18 diacid])LATLPRTETGSGSP-NH2 | pM | 8.66 |
| Compound 77 (peptide) peptide: Y[Aib]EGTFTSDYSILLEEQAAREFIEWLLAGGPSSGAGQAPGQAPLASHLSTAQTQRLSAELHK([AEEA-AEEA-γGlu-C20 diacid])LATLPRTETGSGSP-NH2 | pM | 3.13 |
| Compound 37 (reading uncertain) peptide: H[Aib]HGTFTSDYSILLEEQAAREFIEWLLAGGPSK(Chem. 28)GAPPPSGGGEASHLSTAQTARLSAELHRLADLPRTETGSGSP-NH2 | pM | 2.98 |

Task: Given Compound 62 (peptide) peptide: H[Aib]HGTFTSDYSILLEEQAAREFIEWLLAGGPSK([AEEA-AEEA-γGlu-C16 diacid])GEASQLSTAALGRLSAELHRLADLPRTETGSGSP-NH2 , state its recorded hAMYR3 Potency, no HSA, EC50 [pM].
Result: 3.35

Task: Given Compound 49 (reading uncertain) peptide: Y[Aib]EGTFTSDYSILLEEQAAREFIEWLLAGGPSSGAPPPSGGGEASHLSTAQTQRLSAELHK(Chem. 28)LATLPRTETGSGSP-NH2 , state its recorded hAMYR3 Potency, no HSA, EC50 [pM].
Result: 1.85
